Factor D (Homo sapiens, UniProt P00746) IC50 data
Sequence (P00746 26-253): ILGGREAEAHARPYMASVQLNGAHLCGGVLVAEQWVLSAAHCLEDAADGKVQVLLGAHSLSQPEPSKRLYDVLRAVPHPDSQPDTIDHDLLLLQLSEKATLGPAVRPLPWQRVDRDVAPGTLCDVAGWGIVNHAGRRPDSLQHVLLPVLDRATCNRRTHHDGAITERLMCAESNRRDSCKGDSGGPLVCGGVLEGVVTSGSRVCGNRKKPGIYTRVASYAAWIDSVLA
quantity_kind: IC50

* C[C@@]12C[C@@H](C(=O)Nc3cccc(Br)n3)N(C(=O)Cn3c4ncnc(N)c4c4cccc(Br)c43)[C@@H]1C2 [Compound 186a] | < 100 nM
* Cc1cccc2c3c(N)ncnc3n(CC(=O)N3[C@@H]4C[C@@H]4C[C@H]3C(=O)Nc3cccc(Br)n3)c12 [Compound 30f] | < 100 nM
* Cc1ccc2c(c1)c1c(N)ncnc1n2CC(=O)N1[C@H](C(=O)Nc2cccc(Br)n2)C[C@@]2(C)C[C@@H]12 | < 100 nM
* Cc1ccc(Cl)nc1NC(=O)[C@@H]1C[C@@]2(C)C[C@H]2N1C(=O)Cn1c2ncnc(N)c2c2cc(C(F)(F)F)cc(C)c21 [Compound 332c] | < 100 nM
* Nc1ncnc2c1c1cc(-c3ccncc3)ccc1n2CC(=O)N1[C@@H]2C[C@@H]2C[C@H]1C(=O)Nc1cccc(Br)n1 [Compound 226c] | < 100 nM
* Nc1ncnc2c1c(-c1ccoc1)cn2CC(=O)N1C[C@H](F)C[C@H]1C(=O)NCc1cccc(Cl)c1F [Compound 143d] | 100 to 1000 nM

----------
pIC50: −log10 of the molar value.
The following compounds each carry a recorded pIC50 for Factor D (Homo sapiens, UniProt P00746).
quantity_kind: pIC50

* Cc1cc(F)c(Br)nc1NC(=O)[C@@H]1C[C@@]2(C)C[C@H]2N1C(=O)Cn1c2ncnc(N)c2c2cc(C(F)(F)F)cc(C)c21 [Compound 333c] | > 7.00
* Cc1ccc(Br)nc1NC(=O)[C@@H]1C[C@@]2(C)C[C@H]2N1C(=O)Cn1c2ncnc(N)c2c2cc(C(F)(F)F)cc(C)c21 [Compound 302a] | > 7.00
* Nc1ncnc2c1c1cc(C(F)(F)F)ccc1n2CC(=O)N1C[C@H](N)C[C@H]1C(=O)Nc1cccc(Br)n1 [Compound 201e] | 6.00 to 7.00
* Nc1ncnc2c1nc(Br)n2CC(=O)N1C[C@H](F)C[C@H]1C(=O)NCc1cccc(Cl)c1F [Compound 110d] | < 6.00
* Nc1ncnc2c1cc1n2C(C(=O)N2[C@@H](C(=O)Nc3cccc(Br)n3)C[C@@H]3C[C@@H]32)Oc2ccccc2-1 (single isomer, unassigned) [Compound 293b] | > 7.00
* Nc1ncnc2c1c1ncccc1n2CC(=O)N1[C@@H]2C[C@@H]2C[C@H]1C(=O)Nc1cccc(Br)n1 [Compound 31f] | > 7.00
* Nc1ncnc2c1ccn2CC(=O)N1C[C@H](F)C[C@H]1C(=O)NCc1cccc(Cl)c1F [Compound 64a] | > 7.00
* COc1cc(F)cc2c3c(N)ncnc3n(CC(=O)N3[C@@H]4C[C@@H]4C[C@H]3C(=O)Nc3cccc(Br)n3)c12 [Compound 280g] | > 7.00
* NC[C@H]1C[C@@H](C(=O)Nc2cccc(Br)n2)N(C(=O)Cn2c3ccc(C(F)(F)F)cc3c3c(N)ncnc32)C1 [Compound 212e] | 6.00 to 7.00
* Cc1ccc(Br)nc1NC(=O)[C@@H]1C[C@H]2C[C@H]2N1C(=O)Cn1c2ncnc(N)c2c2cc(C(F)(F)F)cc(C)c21 [Compound 303a] | > 7.00
* COc1cccc2c3c(N)ncnc3n(CC(=O)N3[C@@H]4C[C@@H]4C[C@H]3C(=O)Nc3cccc(Br)n3)c12 [Compound 54g] | > 7.00
* Nc1ncnc2c1c(-c1ccccc1)cn2CC(=O)N1C[C@H](F)C[C@H]1C(=O)NCc1cccc(Cl)c1F [Compound 135a] | 6.00 to 7.00
* Cc1cc(-c2ccco2)cc2c3c(N)ncnc3n(CC(=O)N3[C@H](C(=O)Nc4cccc(Br)n4)C[C@@]4(C)C[C@@H]34)c12 [Compound 359c] | > 7.00
